Each recorded value in this set is attributed to the Deep4Chem optical property database.

# methodSummary: photoluminescence quantum yield (fraction); solvent given as SMILES
# measurementConditions: in ClCCl
propertyMeasured: photoluminescence quantum yield
One number for each entry.

Examples with answers:
CN(C)c1ccc(C2=Nc3sc4cc(Cl)ccc4[n+]3[B-](F)(F)O2)cc1 ... 0.78
C(=C\c1cc(-c2ccc3ccccc3c2)c(/C=C/c2ccc(N(c3ccccc3)c3ccccc3)cc2)cc1-c1ccc2ccccc2c1)/c1ccc(N(c2ccccc2)c2ccccc2)cc1 ... 0.59
CCOC(=O)COc1ccc(/C=C/C2=C3C(C)=CC(/C=C/c4ccc(OCC(=O)OCC)cc4)=[N+]3[B-](F)(F)n3c2c2ccccc2c3-c2[nH]c(C)cc2C)cc1 ... 0.01
Brc1cc2nc3cc4c5c(cccc5c3nc2cc1Br)C(c1ccccc1)=C(c1ccccc1)O4 ... 0.12

Using known records, supply photoluminescence quantum yield for CC1=C(c2ccc(N(c3ccccc3)c3ccccc3)cc2)C(C)=[N+]2C1=C(c1c(-c3ccccn3)nc3ccccn13)c1c(C)cc(C)n1[B-]2(F)F
0.0038

----------
I'd appreciate it if you could supply photoluminescence quantum yield values for the items below.
# methodSummary: photoluminescence quantum yield (fraction); solvent given as SMILES
# measurementConditions: in Cc1ccccc1

Examples with answers:
COc1cc2c(cc1/C=C/C(=C(C#N)C#N)c1ccccc1)c1ccccc1n2C ... 0.007
COc1ccc2c(c1)sc1[n+]2[B-](F)(F)OC(c2ccc(N(C)C)cc2)=N1 ... 0.88
O=CN1N=C(c2ccc(Br)cc2)C[C@@H]1c1ccccc1 ... 0.01
CCCCN1C(=O)c2cc(Oc3ccc(C(C)(C)C)cc3)c3c4c(Oc5ccc(C(C)(C)C)cc5)cc5c(=O)n6c(c7cc(Oc8ccc(C(C)(C)C)cc8)c(c8c(Oc9ccc(C(C)(C)C)cc9)cc(c2c38)C1=O)c4c57)=Cc1cccc[n+]1[B-]6(F)F ... 0.451
N#Cc1ccc(N)c2nonc12 ... 0.304
COc1ccc(C2=[N+]3C(=Nc4c(-c5cc(OC)c(OC)c(OC)c5)cc(-c5ccc(OC)cc5)n4[B-]3(F)F)C(c3cc(OC)c(OC)c(OC)c3)=C2)cc1 ... 0.24

Now take the following compound into account.
Using known records, supply photoluminescence quantum yield for CCCCN(CCCC)c1ccc(/C=C/c2ccc(-c3ccc(/C=C/c4ccc(N(CCCC)CCCC)cc4)cc3)cc2)cc1
0.81

----------
# methodSummary: photoluminescence quantum yield (fraction); solvent given as SMILES
# measurementConditions: in C1CCCCC1
Decision: photoluminescence quantum yield beneath 0.06 gives Fulfilled; photoluminescence quantum yield meeting or exceeding 0.06 gives Not fulfilled.

O=[N+]([O-])c1ccc(F)cc1C1CC(c2cccc3ccccc23)=NN1c1ccccc1 (stereo not given) ... Not fulfilled
Cc1cc(C)cc(C)c1 ... Not fulfilled
COc1ccc(/C=C/c2nc3ccccc3s2)cc1 ... Fulfilled

Consider the additional compound presented here.
# TODO verify photoluminescence quantum yield < 0.06 strictly for this compound: Nc1ccc2c(c1)C(=O)N(C13C[C@H]4C[C@@H](C1)C[C@@H](C3)C4)C2=O
Not fulfilled

----------
# methodSummary: photoluminescence quantum yield (fraction); solvent given as SMILES
# measurementConditions: in O
I'd appreciate it if you could supply photoluminescence quantum yield values for the items below.
One number for each entry.

Examples with answers:
O=c1ccc2cc3c(cc2o1)OCC3 ... 0.83
Cc1nc2c(c[n+]1C)CN1C(=O)N([C@H]3O[C@@H](CO)[C@H](O)[C@@H]3O)C=CC1=N2 ... 0.38
CCCN1/C(=C/C=C(/C=C/C2=[N+](CCC)c3ccccc3C2(C)C)c2ccncc2)C(C)(C)c2ccccc21 ... 0.07
Oc1cc(-c2ccco2)ccc1-c1nc2ccccc2s1 ... 0.1

Items follow; give photoluminescence quantum yield for each.
1. CC[N+](CC)=c1ccc2c(C(F)(F)F)c3oc4cc(N)ccc4c3oc-2c1
2. CN(C)c1ccc2cc3ccc(=[N+](C)C)cc-3oc2c1
3. CCCCCn1c2ccc(S(=O)(=O)O)cc2c(=O)c2cc(S(=O)(=O)O)ccc21
4. N#Cc1c(N2CCCCC2)cc(-c2cccs2)c2c1-c1cccc3cccc-2c13

0.014
0.38
0.92
0.3

----------
I'd appreciate it if you could supply photoluminescence quantum yield values for the items below.
# methodSummary: photoluminescence quantum yield (fraction); solvent given as SMILES
# measurementConditions: in CC#N
Numbers only.

Examples with answers:
O=C1C=CC2=Cc3ccccc3B(O)N12 ... 0.97
C(=C\c1nc2ccccc2[nH]1)/c1ccc(-c2nc3c4cccnc4c4ncccc4c3[nH]2)cc1 ... 0.15

Now take the following compound into account.
Using known records, supply photoluminescence quantum yield for Cc1ccccc1-c1cc(-c2ccc(N3c4ccccc4C(C)(C)c4ccccc43)cc2)nc(-c2ccccc2)n1
0.101

----------
# methodSummary: photoluminescence quantum yield (fraction); solvent given as SMILES
# measurementConditions: in c1ccccc1
propertyMeasured: photoluminescence quantum yield
Numbers only.

Examples with answers:
CCC1=C(C)C(=O)n2c1cc1c(C)cc(C)n1c2=O ... 1
CC1(C)CCc2c(c3ccccc3c3nc4c5c(c6ccccc6c4nc23)OC(C)(C)CC5)O1 ... 0.42
CN(C)c1cccc2c1-c1ccccc1C2=O ... 0.073
Cc1nc2c(ccc3ccc(O)cc32)oc1=O ... 0.358
CN(C)c1ccc(/C=C2\CC/C(=C\c3ccc(C#N)cc3)C2=O)cc1 ... 0.066

Now take the following compound into account.
Using known records, supply photoluminescence quantum yield for CCOC(=O)c1sc2nc(-c3ccc(OC)cc3)c(C)c(C#N)c2c1N
0.064

----------
# methodSummary: photoluminescence quantum yield (fraction); solvent given as SMILES
# measurementConditions: in C1CCOC1
propertyMeasured: photoluminescence quantum yield

Examples with answers:
CCOC(=O)c1ccc(C2=CC3=c4cc(-c5ccc(C(=O)OCC)cc5)c5nc(C(F)(F)C(F)(F)C(F)(F)F)nc6c(-c7ccc(C(=O)OCC)cc7)cc(c4c65)C4=CC(c5ccc(C(=O)OCC)cc5)=C5N=C(C(F)(F)C(F)(F)C(F)(F)F)N=C2C5C43)cc1 (configuration not stated) ... 0.79
Cc1cccc(C2=CC3=C(c4c(C)cc(C)cc4C)c4cc(-c5cccc(C)c5)c(-c5cccc(C)c5)n4[B-](F)(F)[N+]3=C2c2cccc(C)c2)c1 ... 0.33
COc1cc(OC)cc(C2=C3C(C)=C(I)C(/C=C/c4c[nH]c5ccc([N+](=O)[O-])cc45)=[N+]3[B-](F)(F)n3c(/C=C/c4c[nH]c5ccc([N+](=O)[O-])cc45)c(I)c(C)c32)c1 ... 0.03
CCc1c(C)[nH]c(C2=[N+]3C(=Cc4c(C)c(CC)c(C)n4[B-]3(F)F)c3ccccc32)c1C ... 0.09
Cc1ccc(C(=O)NN2C3=C(CC4=C2CCCC4=O)C(=O)CCC3)cc1 ... 0.31

Items follow; give photoluminescence quantum yield for each.
1. O=C1c2ccc3c4c(Oc5ccccc5)cc5c6c(ccc(c7c(Oc8ccccc8)cc(c2c37)C(=O)N1c1ccc(O)cc1)c64)C(=O)N(c1ccc(O)cc1)C5=O
2. CCn1c2ccccc2c2cc(-c3cc(-c4ccc5c(c4)c4ccccc4n5CC)nc(N4CCCCC4)n3)ccc21

1: 0.3; 2: 0.15

----------
# methodSummary: photoluminescence quantum yield (fraction); solvent given as SMILES
# measurementConditions: in ClCCl
I'd appreciate it if you could supply photoluminescence quantum yield values for the items below.
One number for each entry.

CCCCCCC1(CCCCCC)c2cc(-c3nc(-c4ccc5c(c4)C(CCCCCC)(CCCCCC)c4cc(N6c7ccccc7Oc7ccccc76)ccc4-5)nc(-c4ccc5c(c4)C(CCCCCC)(CCCCCC)c4cc(N6c7ccccc7Oc7ccccc76)ccc4-5)n3)ccc2-c2ccc(N3c4ccccc4Oc4ccccc43)cc21 ... 0.01
COc1cc2c(cc1/C=C/C1=CC(=C(C#N)C#N)CC(C)(C)C1)c1ccccc1n2C ... 0.022

Using known records, supply photoluminescence quantum yield for CCCCCCOc1ccc(C#Cc2ccc(-c3ccc(-c4ccc(C#Cc5ccc(OCCCCCC)c(OCCCCCC)c5)s4)c4nsnc34)s2)cc1OCCCCCC
0.35

----------
# methodSummary: photoluminescence quantum yield (fraction); solvent given as SMILES
# measurementConditions: in CCOC(C)=O
propertyMeasured: photoluminescence quantum yield
Give bare numbers.

Items follow; give photoluminescence quantum yield for each.
1. COC(=O)C[C@H](Cc1c[nH]c2ccccc12)NC(=O)[C@H](CC(=O)N[C@@H](CC1=CCc2ccccc21)C(=O)OC)NC(=O)[C@H](Cc1c[nH]c2ccccc12)NC(=O)OC(C)(C)C
2. COc1cc2c(cc1/C=C(\C#N)c1nc3ccccc3s1)c1ccccc1n2C
3. CN(C)c1ccc(/C=C/C=C2\CC/C(=C\c3ccc(N(C)C)cc3)C2=O)cc1

1: 0.22; 2: 0.003; 3: 0.2

----------
# methodSummary: photoluminescence quantum yield (fraction); solvent given as SMILES
# measurementConditions: in Cc1ccccc1
propertyMeasured: photoluminescence quantum yield
One number for each entry.

COc1ccc(-c2csc(/C(C#N)=C\Nc3ccc(C#N)cc3)n2)cc1 ... 0.003
COc1ccc(C2=[N+]3C(=Nc4c5c6cc(OC)c(OC)c(OC)c6c6cc(C(C)(C)C)ccc6c5c(-c5ccc(OC)cc5)n4[B-]3(F)F)c3c2c2ccc(C(C)(C)C)cc2c2c(OC)c(OC)c(OC)cc32)cc1 ... 0.35
Cc1cc(C)c(C2=[N+]3C(=Cc4c(C)cc(C)n4[B-]3(F)F)c3ccccc32)[nH]1 ... 0.81
CN(C)c1ccc(/C=C2\CC/C(=C\c3ccc(C#N)cc3)C2=O)cc1 ... 0.05
CC1=[N+]2C(=C(c3ccc(N4CCOCC4)cc3)c3ccc(C)n3[B-]2(F)F)C=C1 ... 0.32

Items follow; give photoluminescence quantum yield for each.
1. CCCCCCCCOc1ccc(C#Cc2ccc(C#Cc3ccc(OCCCCCCCC)c(OCCCCCCCC)c3)c3nc4c5ccccc5c5ccccc5c4nc23)cc1OCCCCCCCC
2. C(#Cc1ccc2ncsc2c1)c1ccc(N(c2ccc(C#Cc3ccc4ncsc4c3)cc2)c2ccc(C#Cc3ccc4ncsc4c3)cc2)cc1

1. 0.19
2. 0.53

Items follow; give photoluminescence quantum yield for each.
1. BrCCCCCCCCCCCCOc1cc2ccc3cccc4ccc(c1)c2c34
2. CC(=O)c1ccc2ccc3cccc4ccc1c2c34
3. CC(C)(C)c1ccc2c(c1)c1cc(C(C)(C)C)ccc1n2-c1cccc2c1Oc1c(-c3nc(-c4ccccc4)nc(-c4ccccc4)n3)cccc1C2(C)C

1: 0.59; 2: 0.003; 3: 0.06
